- ASSAY: yeast display, Sf9 membrane polyspecificity reagent, FACS + sequencing; frameworks hold sequencing errors

MONOMER SEQUENCE	polyreactivity (PSR sort gate)
QVQLVESGGGLVQAGGSLRLSCAASGITSDFNAMGWYRQAPGKERELVAITWNGGSTYYADSVKGRFTISRDNAKNTVYLQMNSLKPEDSAVYYCAARYRRYNRIYDYWGQGTQVTVSS	high polyreactivity
QVQLVESGGGLVQAGGSLRLSCAASGSTFGDNAMGWYRQAPGKERELVATITSGGNTNYADSVKGRFTISRDNAKNTVYLQMNSLKPEDTAGYYCNTDFRPAGTTGTTTARYEYWGQGTQVTLSS	low polyreactivity
QVQLVESGGGLVQAGGSLRLICAASGRTFRVYAMGWYRQAPGKERELVASISRRGASTYYADSVKGRFTISRDIAKNTVYLQMNSLKPEDTAVYYCAADRRYYSVSPNTEFEYWGQGTQETVSS	high polyreactivity
QVQLEESGGGLVQAGGSLRLSSAASGGTFRPYAMGWYRQAPGKERELVATIRSSGGRTYYADSVKGRFTISRDNAKNTVYLQMTSLKPEDTAVYYCAKRAQTYYGYDYWGQGTQVTVSS	high polyreactivity
QVQHVESGGGLVQAGGSLRLSCAASGRTFYSYAMGWYRQAPGKDRELVAAITSDGGTYYADSVKGRFTISRDNAKNTVYLQMNSLKPDDTAVYYCNTRDLYGYPQVTGYDYWGQGTQVTVSS	low polyreactivity

* * *

- ASSAY: yeast display, Sf9 membrane polyspecificity reagent, FACS + sequencing; frameworks hold sequencing errors
QUANTITY: polyreactivity (PSR sort gate)

MONOMER SEQUENCE	QUANTITY	READOUT VALUE
QVQLQESGGGLVQAGGSLRLSCAASGYISAGRQMGWYRQAPGKEREFVATINGGATTNYADSVKGRFTISRDNAKNSVYLQMNSLKPEDTAVYYCAAVIWYVQDYTYWGQGAQVTVSS	polyreactivity (PSR sort gate)	high polyreactivity
QVQLVESGGGLVQAGGSLRLSCAASGRTFAANTMGWYRQAPGKERELVAAINSGGSTYYADSVKGRFTISRDNAKNTVYLHMNSLKPEATAVYYCAVSWWEVPRIFGYSSRYDYWGQGTQVTVSS	polyreactivity (PSR sort gate)	high polyreactivity
QVQLVESGGGLVQAGGSLRLSCAASGGIFWRYAMGWYRQAPGKERELVAAISSRGGSTYYADSVKGRFTISRDNAKNTVYLQMNSLKPEDTAVYYCAAAFLSRVQGYDSWGQGTQVTVSS	polyreactivity (PSR sort gate)	high polyreactivity
QVQLVESGGGLVQSGGSLRLSCAASGSILYGYAMGWYRQAPGKERELVAAIRWTGGSTYYADSVKGRFTISRDNAKNTVYLQMNSLKPEDTAVYFCAAEYNLRTYWGDYWGQGTQVTVSS	polyreactivity (PSR sort gate)	low polyreactivity
QVQLVESGAGLVQARGSLRISCAASGSIFGRYAMGWYRQAPRKERELVASIYSTGGRTYYADSVKGRFTISRDNAKNTVYLQMNSLKPEDTAVYYCAAKFYEYSTAGTQWIRYYYWGQGTQVTVSS	polyreactivity (PSR sort gate)	high polyreactivity
QVQLVETGGGLVQAGGSLRLSCAASGRTFSRNAMGWYRQAPGKERELVAAISQRGVSTYYADSVKGRFTISRDNAKNTVYLQMNSLKPEDTAVYYCNTRGTYRYDYWGQGTQVTVSS	polyreactivity (PSR sort gate)	low polyreactivity
QVHLVESGGGLVQAGGSLRLSCAASGFTFGWNAMGWYRQAPGKERELVASINSGGSTYNADSVKGRFTISRDNAKNTVYLEMNFLKPEDTAVYYCATAPYVTSRRYGPYEYWGQGSQVTVSS	polyreactivity (PSR sort gate)	low polyreactivity
QVQLVESGGGLVQAGGSLRLSCAASGNTFANYAMGWYRQAPGKERELVAAITSNGGSTYYADSVKGRFTISRDNAKNTVYLQMNSLKPEDTAVYYCAAPGAISTRSRYGPGYTYDYWGQVTQVTVSS	polyreactivity (PSR sort gate)	low polyreactivity
QVQLVESGGGLVQAGGSLRLSCAASGRIFRGYAMGWYRPAPGKERELVAAINWSGGSTDYADSVKGRFTISRDYAKNTVYLQMNSLKPEDTAVYYCSTSTCRGYSWGHGTQVTVSS	polyreactivity (PSR sort gate)	high polyreactivity
QVQLVESGGGLVQAGGSLRLSCAASGSIFGYNAMGWYRQAPGKESELVAAISSSGGRTYYADSVKGRFTNSRDNAKNTVYLQMNSLKPEDTAVYYCAALGLYGDYLWYDYWGQGTQVTVSS	polyreactivity (PSR sort gate)	high polyreactivity
QVQLVESGGGLVQAGGSLRLSCAASGRIFAWNAMGCYRQAPGKERELVAGISGSGGSTYYADSVKGRFTISRDNAKNTVYFQMNSLKPEDTAVYYCAARRRYDGWGGYWGQGTQVTVSS	polyreactivity (PSR sort gate)	high polyreactivity
QVQLVETGGGLVQAGGSLRLICAASGSTFQPYAMGWYRQAPGKEREFVATISGSAGSTYYADSVKGRFKISRDNAKNTVYLQMNSLKPEDTAVYYCNADSGWFGYDYWGQGTQVTVSS	polyreactivity (PSR sort gate)	low polyreactivity
QDKLVESGGGLVQEGGRLRLSCAASGRIFGNYAMGWYRQAPGKERELVAAIDLSGDSTYYADSVKGRFTISRDNAKYTVYLQMKSLKPEDTAVYYCAATDWFSEYYWGQGTQETVSS	polyreactivity (PSR sort gate)	low polyreactivity
QVQLVESGGGLVQAGGSLRLSCAASGRILYSYAMGWYRQEPGKERELVAAISSTGSTYYADSVKGRFTISRDNAKNTVYLQMISLKPEDTAVYYCAATFYPYQVHHYYYWGQGTQVTVSS	polyreactivity (PSR sort gate)	low polyreactivity
QVQLVESWGGLDQAGGSLRLSCAASGRTIRRYAMGCYRQAPGKERELVASISTSGGSTNADSVKGRFTISRDNSKNTVYLQMNSLKPEDTAVYYCAVRYPRYVRNGDYWGQGTQVTVSS	polyreactivity (PSR sort gate)	high polyreactivity
QVQLVESGGGLVQAGGSLRLSCAASGSTIFENVMGWYRQAPGKEREFVAAINTSGGSTYYADSVKGRFTISRDNAKNTVYLQMNSLKPEDTAVYYCARDSYWEMDYWGQGTQVSVSS	polyreactivity (PSR sort gate)	low polyreactivity
QDQLVESGGGLVQAGGSLRLSCAASGSIFYQNAMGWYRQAPGKERELVAAISIGGGSTYYADSVKGRFTISRDNAKNTVYLQMNSLKPEDTAVYYCATRRSVIYSYVPFDYWGQGTQVTVSS	polyreactivity (PSR sort gate)	low polyreactivity
QVQLVESGGGLVQAGGSLRLSSAASGLIFYDNMGWSRQAPGKERELDAAISSSGGSTSDADSVKGRFTISRDNAKNTVYLQMNSLKPEDTAVYYCAADSYPDYLGFVGFDYWGQGTQVTVSS	polyreactivity (PSR sort gate)	low polyreactivity
QVQLVESGGGLVQAGGSLRLSCAASGRTFAVYTMGWYRQAPGKERELVARIRYSGGNTYYADSVKGRFTISRENAKNTVYLQMNSLKPEDTAVYYCAARSRYRIYASRNFDYWGQGTQVTVSS	polyreactivity (PSR sort gate)	high polyreactivity
QVHLVESGGGLVQAGGSLRLSCAASGRTFILNAMGWYRQAPGKERELVAAISWSGGSTYYADSVKGRFTISRDNAKNTVYLQMNSLKPEDTAVYYCAKDSPGDGIGYGYWGQGTQVTVSS	polyreactivity (PSR sort gate)	low polyreactivity
QVQLEESGGGLVQAGGSLRLSCAASGIIIVRNAMGWYRQAPGKEREFVAAISSSGGSTYYADSVKGRFTISRDNGKNTVYLQMNSLNPEDTAVYNCNARHRQWARGYWGQGTQVTVSS	polyreactivity (PSR sort gate)	high polyreactivity
